- TARGET_OR_TEST_SYSTEM: T1, mPD-1-Fc (mouse; human, UniProt Q02242 25-167, limits assumed)
- T1 construct: domain: IgV domain; not shown: human IgG1 Fc
- T1 sequence (looked up): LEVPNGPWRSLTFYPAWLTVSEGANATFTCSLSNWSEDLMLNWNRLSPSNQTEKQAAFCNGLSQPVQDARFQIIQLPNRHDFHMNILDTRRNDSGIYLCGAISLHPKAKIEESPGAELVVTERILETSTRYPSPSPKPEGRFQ
- TEST_SUMMARY: SPR Biacore, mPD1-Fc
RECORDED_METRIC: koff

**Query** Respond only with koff recorded for m4D1 (antibody, V domains shown, R3A9 derivative) VH: QVQLVQSGAEVKKPGASVKVSCKASGHTFTSYYIHWVRQAPGQGLEWMGIINPSGGSTSYAQKFQGRVTMTRDTSTSTVYMELSSLRSEDTAVYYCARDRAYGGAGDYWGQGTLVTVSS VL: DIQMTQSPSSLSASVGDRVTITCRASQSISAWLAWYQQKPGKAPKLLIYKASSLESGVPSRFSGSGSGTDFTLTISSLQPEDFATYYCQQSYSPPATFGGGTKVEIK
**Result** 0.000179 s⁻¹
